B1: mRNA-splicing (parent)
chain: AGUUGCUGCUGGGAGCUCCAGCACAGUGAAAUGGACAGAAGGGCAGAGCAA

- Variants of: B1
- assay.notes: exon inclusion enrichment index; higher = more inclusion; WT1 exon 5 minigene, HEK293
# if value of exon inclusion enrichment index reaches 0.6, tag fulfilled; if it stays below, tag not fulfilled

variant.designation	classification
C16A U17A	not fulfilled
C6A U7C C9A U10C G28U	fulfilled
G5C C6U G8C C9U U10C A30U	fulfilled
C6A U7C C9A U10C C24G	fulfilled
G34C A35C	not fulfilled
C9U	fulfilled
C6A U7C C9A U10C G33U G34C	fulfilled
G5A C6U U7A G8U C9A A37C G38A	not fulfilled
G5A C6U U7A G8U C9A G41U G42A	not fulfilled
C6A U7A C9A U10A A45C G46C	not fulfilled
G5U G8U C9U A20U	not fulfilled
G5A U7C G8A U10C U32G G33U	fulfilled
C22A A23G	fulfilled
C6A U7C C9A U10C G46C A47U	fulfilled
U7G	not fulfilled
C6A U7C C9A U10C C22G A23G	fulfilled
C6A U7C C9A U10C A31C U32G	fulfilled
C6A U7C C9A U10C G46A	fulfilled
G5C C6A U7C G8A U10A G38C	not fulfilled
G2C G5C C6U G8C C9U U10C	fulfilled
G5A C6U U7A G8U C9A A23U	not fulfilled
U7A G8U C9A	not fulfilled
G5A U7C G8A U10C G21C C22A	fulfilled
C6A U7A C9A U10A A23G C24U	not fulfilled
G5U G8C C9U U10C	fulfilled
C6A U7C C9A U10C A37G G38C	fulfilled
G5C C6U G8C C9U U10C C19U	not fulfilled
G5C U7G G8C C9U U10C	not fulfilled
G5A C6G U7G C9A A29G A30G	not fulfilled
G5A U7C G8A U10C A30U A31G	fulfilled
G5U C6G U7C C9A U10C	fulfilled
G38C A39U	not fulfilled
C6A U7A C9A U10A G41U	fulfilled
G5C C6G U7C U10C U32C G33A	fulfilled
G5C C6A U7C G8A U10A G34A A35G	not fulfilled
G5A U7G C9A	fulfilled
C6A U7C C9A U10C A37U G38C	fulfilled
G5A U7C G8A U10C U27C	fulfilled
G5U G8U C9U G41A G42C	not fulfilled
G5C C6G U7C U10C A37G G38A	fulfilled
G5C C6G U7C U10C U32G G33C	fulfilled
G5A C6U U7A G8U C9A A39C A40U	not fulfilled
G46U A47C	fulfilled
C6A U7A C9A U10A G48A	fulfilled
G5C C6U G8C C9U U10C U17A C18A	fulfilled
G5A C6U U7A G8U C9A G33C G34A	not fulfilled
G5C C6U G8C C9U U10C G34C A35G	fulfilled
G43U C44A	not fulfilled
C6A U7A C9A U10A U17A C18A	not fulfilled
C6A U7C C9A U10C G34C A35U	fulfilled
C6A U7A C9A U10A G13C A14C	fulfilled
G5C C6G U7C U10C G38U A39U	not fulfilled
G5C C6G U7C C9A U10A	fulfilled
G5A U7C G8A U10C A45C G46A	fulfilled
C6A U7C C9A U10C A23U C24G	fulfilled
A23G C24U	not fulfilled
G5A C6G U7G C9A G33C G34C	not fulfilled
G5A U7C G8A U10C A20U G21C	fulfilled
C6A U7C C9A U10C G34A A35U	fulfilled
G5A U7C G8A U10C G41C G42A	fulfilled
G5C C6G U7C U10C A20U G21A	fulfilled
G5C C6U G8C C9U U10C G42C G43A	fulfilled
C6A U7A C9A U10A C36A	not fulfilled
G5U C6U G8U C9U	not fulfilled
G5C C6U G8C C9U U10C A31C	fulfilled
A23U C24G	fulfilled
G5C C6G U7C U10C C24U A25G	fulfilled
G5U G8U C9U U10G G11A	not fulfilled
C6A U7A C9A U10A G21C C22U	fulfilled
G5A U7C G8A U10C G26A	fulfilled
C6A U7C C9A U10C G42C G43A	fulfilled
